- ASSAY SYSTEM: CNS cholinergic receptor
- ASSAY TEXT: CNS cholinergic receptor binding, oxotremorine M ligand
- CONDITION: tritiated oxotremorine M; read-out: CNS Cholinergic Receptor Binding Assays K1 Oxotremorine
List of Ki values.
MEASURED QUANTITY: Ki

molecule=CN(C)CC#CCN1CCN(C(=O)OC(C)(C)C)C1=O measured_quantity=Ki test_value="160 nM"
molecule="C(#C[C@@H]1CCCN1)CN1CCCC1 [Compound 50B]" measured_quantity=Ki test_value="1300 nM"
molecule=CN(C)CC#CCN1CCN(C)C1=O measured_quantity=Ki test_value="4.5 nM"
molecule="CC1CN(C)C(=O)N1CC#CCN1CCCC1 (centres unmarked)" measured_quantity=Ki test_value="4 nM"
molecule="CN(C)CC#C[C@H]1CCCN1 [Compound 50C]" measured_quantity=Ki test_value="970 nM"
molecule=O=C1NCCN1CC#CCN1CCCC1 measured_quantity=Ki test_value="13 nM"
molecule="CC(C#CCN(C)C)n1ccn(C)c1=O (centres unmarked)" measured_quantity=Ki test_value="136 nM"
molecule=CCN(CC)CC#CCn1ccn(C)c1=O measured_quantity=Ki test_value="563 nM"
molecule="COC(=O)N1CCC[C@@H]1C#CCN1CCCC1 [Compound 51J]" measured_quantity=Ki test_value="57 nM"
molecule="CC(C#CCN(C)C)N1CCN(C)C1=O (centres unmarked)" measured_quantity=Ki test_value="33 nM"
molecule=CN(C)CC#CCN1CCNC1=O measured_quantity=Ki test_value="43 nM"

====

- ASSAY SYSTEM: CNS cholinergic receptor
- ASSAY TEXT: CNS cholinergic receptor binding, oxotremorine M ligand
- CONDITION: tritiated oxotremorine M; read-out: CNS Cholinergic Receptor Binding Assays K1 Oxotremorine
pKi: −log10 of the molar value.
Give condition met when the value for pKi is at least 7. Give condition not met when it is less.

compound=Cn1ccn(CC#CCn2ccnc2)c1=O assay_system="CNS cholinergic receptor" class_name="condition met"
compound="CC(C#CCN1CCCC1)n1ccn(C)c1=O (centres unmarked)" assay_system="CNS cholinergic receptor" class_name="condition met"
compound=CCN1CCN(CC#CCN2CCCC2)C1=O assay_system="CNS cholinergic receptor" class_name="condition not met"
compound="CC(C)(C)OC(=O)N1CCC[C@H]1C#CCN1CCCC1 [Compound 49B]" assay_system="CNS cholinergic receptor" class_name="condition not met"
compound="CC(C#CCN1CCCC1)N1CCNC1=O (centres unmarked)" assay_system="CNS cholinergic receptor" class_name="condition met"
compound="CC(=O)N1CCC[C@H]1C#CCN(C)C [Compound 51D]" assay_system="CNS cholinergic receptor" class_name="condition not met"
compound=Cc1cncn1CC#CCN1CCN(C)C1=O assay_system="CNS cholinergic receptor" class_name="condition met"
compound=CN1C(=O)N(CC#CCN2CCCC2)CC1(C)C assay_system="CNS cholinergic receptor" class_name="condition not met"

====

List of pKi values.
- ASSAY SYSTEM: CNS cholinergic receptor
- CONDITION: tritiated quinuclidine benzylate (QNB); read-out: CNS Cholinergic Receptor Binding Assays K1 QNB
pKi: −log10 of the molar value.
MEASURED QUANTITY: pKi

compound="COC(=O)N1CCC[C@@H]1C#CCN1CCCC1 [Compound 51J]" assay_system="CNS cholinergic receptor" qualifier_operator== test_value=6.34
compound="CN(C)C(=O)N1CCC[C@@H]1C#CCN1CCCC1 [Compound 51E]" assay_system="CNS cholinergic receptor" qualifier_operator== test_value=7.37
compound="O=C1NCCN1CC#CCn1ccnc1 [Compound 25]" assay_system="CNS cholinergic receptor" qualifier_operator=< test_value=5.00

====

- ASSAY SYSTEM: CNS cholinergic receptor
- ASSAY TEXT: CNS cholinergic receptor binding, oxotremorine M ligand
- CONDITION: tritiated oxotremorine M; read-out: CNS Cholinergic Receptor Binding Assays K1 Oxotremorine
MEASURED QUANTITY: Ki

compound="CC1(C)CNC(=O)N1CC#CCN1CCCC1 [Compound 16]" measured_quantity=Ki test_value="290 nM"
compound="CN1CCCN(CC#CCN2CCCC2)C1=O [Compound 42]" measured_quantity=Ki test_value="229 nM"
compound="CC1CN(C(=O)OC(C)(C)C)C(=O)N1CC#CCN1CCCC1 (stereo not drawn) [Compound 18]" measured_quantity=Ki test_value="180 nM"
compound="CCN(CC)CC#CC(C)N1CCN(C)C1=O (stereo not drawn) [Compound 34]" measured_quantity=Ki test_value="165 nM"
compound="CN(C)CC#CCN1CCN(c2ccccc2)C1=O [Compound 21]" measured_quantity=Ki test_value="840 nM"
compound="CN(C)C(=O)N1CCC[C@H]1C#CCN1CCCC1 [Compound 51F]" measured_quantity=Ki test_value="460 nM"

====

- ASSAY SYSTEM: CNS cholinergic receptor
- CONDITION: tritiated quinuclidine benzylate (QNB); read-out: CNS Cholinergic Receptor Binding Assays K1 QNB
pKi: −log10 of the molar value.
Give 1.0 when the value for pKi is at least 6. Give 0.0 when it is less.

compound=CN(C)CC#CCN1CCN(c2ccccc2)C1=O class_name=0.0
compound=CN(C)CC#CCN1C(=O)CN(C)C1=O class_name=0.0
compound="NC(=O)N1CCC[C@@H]1C#CCN1CCCC1 [Compound 51H]" class_name=0.0
compound=CN(C)CC#CCN1CCNC1=O class_name=0.0
compound="CN(C)CC#C[C@H]1CCCN1 [Compound 50C]" class_name=0.0
compound="CN(C)C(=O)N1CCC[C@H]1C#CCN1CCCC1 [Compound 51F]" class_name=0.0
compound="CC(C#CCN1CCCC1)n1ccn(C)c1=O (stereo not shown)" class_name=1.0
compound=Cn1ccn(CC#CCN2CCCC2)c1=O class_name=1.0
compound="CC(C#CCN(C)C)N1CCN(C)C1=O (stereo not shown)" class_name=0.0
compound=O=c1[nH]ccn1CC#CCN1CCCC1 class_name=0.0
compound="CN(C)CC#C[C@H]1CCCN1C(=O)OC(C)(C)C [Compound 49C]" class_name=0.0
compound="CC1CN(CC#CCN2CCCC2)C(=O)N1C(=O)OC(C)(C)C (stereo not shown)" class_name=0.0
compound="CC(=O)N1CCC[C@@H]1C#CCN1CCCC1 [Compound 51A]" class_name=1.0

====

- Test system: HCl-induced writhing
- ASSAY TEXT: HCl writhing protection (analgesic activity)
- Type: in vivo, CF1 mice
- CONDITION: Mus musculus, sc; ED50; s.c. in CF1 mice, 30 min before i.p. 0.15% HCl; read-out: CNS Id (ED50 mg/kg) HCl Writh. Protect
List of ED50 values.
MEASURED QUANTITY: ED50

molecule="CN(C)C(=O)N1CCC[C@@H]1C#CCN1CCCC1 [Compound 51E]" test_value="> 50 mg/kg"
molecule="CCOC(=O)N1CCC[C@@H]1C#CCN1CCCC1 [Compound 51L]" test_value="> 50 mg/kg"
molecule=O=C1N(CC#CCN2CCCC2)CCN1c1ccccc1 test_value="> 25 mg/kg"
molecule=O=C1NCCN1CC#CCN1CCCC1 test_value="2.2 mg/kg"
molecule="COC(=O)N1CCC[C@@H]1C#CCN1CCCC1 [Compound 51J]" test_value="11 mg/kg"
molecule="CC(=O)N1CCC[C@@H]1C#CCN(C)C [Compound 51C]" test_value="> 50 mg/kg"
molecule="CC(C)(C)OC(=O)N1CCC[C@H]1C#CCN1CCCC1 [Compound 49B]" test_value="> 50 mg/kg"
molecule="CN(C)CC#C[C@H]1CCCN1C(=O)OC(C)(C)C [Compound 49C]" test_value="> 50 mg/kg"
molecule="CC1CN(C(=O)OC(C)(C)C)C(=O)N1CC#CCN1CCCC1 (centres unmarked)" test_value="25 mg/kg"
molecule="CC1CN(CC#CCN2CCCC2)C(=O)N1 (centres unmarked)" test_value="> 13 mg/kg"
molecule=CN1CCN(CC#CCN2CCCC2)C1=O test_value="0.2 mg/kg"

====

- System: HCl-induced writhing
- ASSAY TEXT: HCl writhing protection (analgesic activity)
- Assay type: in vivo, CF1 mice
- CONDITION: Mus musculus, sc; ED50; s.c. in CF1 mice, 30 min before i.p. 0.15% HCl; read-out: CNS Id (ED50 mg/kg) HCl Writh. Protect
List of ED50 values.
MEASURED QUANTITY: ED50

molecule="CNC(=O)N1CCC[C@@H]1C#CCN1CCCC1 [Compound 51G]" test_value="> 50 mg/kg"
molecule="CC1CN(C)C(=O)N1CC#CCN1CCCC1 (centres unmarked)" test_value="> 13 mg/kg"
molecule="COC(=O)N1CCC[C@H]1C#CCN1CCCC1 [Compound 51K]" test_value="> 50 mg/kg"
molecule="CC1CN(CC#CCN2CCCC2)C(=O)N1C(=O)OC(C)(C)C (centres unmarked)" test_value="> 25 mg/kg"
molecule="CN(C)CC#C[C@@H]1CCCN1 [Compound 50D]" test_value="> 50 mg/kg"

# credit: patent US5137905A
